Test system: T-cell proliferation (PHA activated human peripheral mononuclear cells, PBMC)
Experiment: T-cell proliferation inhibition assay (PHA-activated PBMC, tritiated thymidine incorporation)
Assay type: cell-based
Details: PHA (5 μg/mL) stimulated PBMC, 72 h + 18 h thymidine pulse, mean of triplicate ± SD, read-out: IC50, inhibitory effect on T-cell proliferation
quantity.name: IC50 (mg/L)

INSERT INTO results (molecule, comparative_sign, value_reported) VALUES
  ('C[C@]12C[C@@H](CO)[C@H](O)C[C@@H]1CC[C@@H]1[C@@H]2CC[C@@]2(C)[C@H]1CC[C@@]2(O)CO', '=', 17),
  ('C[C@]12C=C(CO)C(=O)C[C@@H]1CC[C@@H]1[C@@H]2CC[C@@]2(C)[C@H]1CC[C@]2(C)O', '=', 17.4),
  ('C[C@]12CC(=CO)C(=O)C[C@@H]1CC[C@@H]1[C@@H]2CC[C@@]2(C)[C@H]1CC[C@]2(C)O [Compound 1, reference compound]', '=', 7.5),
  ('C[C@]12C=C(CO)C(=O)C=C1CC[C@@H]1[C@@H]2CC[C@@]2(C)[C@H]1CC[C@]2(C)O', '=', 31.2),
  ('CC12CC(O)C(O)CC1CCC1C2CCC2(C)C1CCC2(C)O (centres unmarked)', '=', 11.8),
  ('C[C@]12C[C@@H](CO)C(=O)C[C@@H]1CC[C@@H]1[C@@H]2CC[C@@]2(C)[C@H]1CC[C@]2(C)O', '=', 2.7),
  ('C[C@]12C=CC(=O)C=C1CC[C@@H]1[C@@H]2[C@@H](O)C[C@@]2(C)[C@H]1CC[C@]2(O)C(=O)CO [Prednisolone, reference compound]', '<', 3.1),
  ('C[C@]12C[C@@H](CO)[C@H](O)C[C@@H]1CC[C@@H]1[C@@H]2CC[C@@]2(C)[C@H]1CC[C@]2(C)O', '=', 10.6);

// data source = paper PMC3740782
